Biological target: T1, biotinylated human VWF cysteine knot (CK) domain construct (human, UniProt P04275 2724-2813, biotinylated in vitro (BirA) on the biotinylation tag; one N-glycan)
T1 construct: Expressed in HEK293 EBNA cells; disulfide-linked homodimer; also called human VWF CK; human VWF CK domain; not shown: in vitro biotinylation tag, HRV-3C site and 3 VWF residues before the CK domain
Experiment: SPR, scFv captured via anti-SV5, CK domain injected, pH 7.4, apparent Kd;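 also: scFvs from crude yeast supernatants printed on an amine-coupled anti-SV5 lawn, Kd computed as koff over kon, likely overestimating affinity because the CK construct is dimeric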
pKd: −log10 of the molar value.
QUANTITY: pKd

>  <BINDER>
Lib4_P2_H3_scFv (scFv, VH-linker-VL; not shown: C-terminal 3xFLAG and SV5 tags) scFv: QVQLQESGPGLVKPSQTLSLTCTVSGSTFGDYAWSWIRQPPGKGLEWIGYINHIGNADYNPSLKSRVTMSVDTSKNQFSLKVNSVTAADTAVYYCARDGVESPEVPNYYYYGMDVWGQGTTVTVSSSGGSTITSYNVYYTKLSSSGTEIVMTQSPATLSLSPGERATLSCRASHSIGSNLAWYQQKPGQAPRLLIYDATNRAPGIPARFSGSGSGTDFTLTISSLEPEDFAVYYCQQSYTNPTFGGGTKVEIK

>  <TEST VALUE>
9.51

$$$$
>  <BINDER>
4761_Lib8_scFv (scFv, VH-linker-VL; not shown: C-terminal 3xFLAG and SV5 tags) scFv: EVQLVESGGGLVQPGRSLRLSCAASGFTFSSDTMHWVRQAPGKGLEWVSAISSSGDHTDYADSVEGRFTISRDNAKNSLYLQMNSLRAEDTAVYYCAREGLRGYYFDYWGQGTLVTVSSSGGSTITSYNVYYTKLSSSGTDIQMTQSPSSLSASVGDRVTITCRASQGISGHLAWYQQKPGKAPKLLIYAASALQSGVPSRFSGSGSGTDFTLTISSLQPEDVATYYCQQSHSLPWTFGGGTKVEIK

>  <TEST VALUE>
8.12

$$$$
>  <BINDER>
Lib8_P4_D4_scFv (scFv, VH-linker-VL; not shown: C-terminal 3xFLAG and SV5 tags) scFv: QVQLVQSGAEVKKPGASVKVSCKVSGDTLSNYAIHWVRQAPGKGLEWMGGINPNAGTTIYAQKFQGRVTMTEDTSTDTAYMELSSLKSEDTAVYYCARDSSSWCPVGYYYYYMDVWGKGTTVTVSSSGGSTITSYNVYYTKLSSSGTDIQMTQSPSSVSASVGDRVTITCRASQSIGDFLAWYQQKPGKAPKLLIYDASHLQTGVPSRFSGSGSGTDFTLTISSLQPEDFANYYCQQTSTIPPTFGGGTKVEIK

>  <TEST VALUE>
9.04

$$$$

Source listed as patent US20250154283A1.
